B1: TPR t1 (parent)
chain: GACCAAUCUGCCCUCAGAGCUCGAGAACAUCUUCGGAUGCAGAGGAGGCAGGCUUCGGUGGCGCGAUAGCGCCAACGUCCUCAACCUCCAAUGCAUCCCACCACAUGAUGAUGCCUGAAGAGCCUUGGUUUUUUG

Variants of: B1
Assay comment: polymerase ribozyme fitness, log enrichment relative to wild type (log ratio); higher = more active; in vitro selection for triplet polymerase activity
Recorded endpoint: polymerase ribozyme fitness (log ratio)

| Record sequence | Recorded endpoint | Numeric readout |
| --- | --- | --- |
| GACCAAUCUGCCCUCAGAGCUCGAGAACAUCUUCGGAUGCAGAGGAGGUAGGCUUCGGUGGCGCGAUAGCGCCAACGUCCUCAACCUCCAAUGCAUCCCACCACAUGAUUAUGCCUGAAGAGCCUUGGUUUUUUG [C49U G110U] | polymerase ribozyme fitness (log ratio) | -2.6 |
| GACCAAUCUGCCCUCAGAGCUCGAGAACAUCUUCGGAUGGAGAGGAUGCAGGCUUCGGUGGCGCGAUAGCGCCAACGUCCUCAACCUCCAAUUCAUCCCACCACAUGAUGAUGCCUGAAGAGCCUUGGCUUUGUG [C40G G47U G93U U129C U133G] | polymerase ribozyme fitness (log ratio) | -2.76 |
| GACCAAUCUGCCCUCAGAGCUCGAGAACAUGUUCGGAUGCAGAGGAGUCAGGCUUCGGUGGCGCAAUAGCGCCAACGUCCUCAACGUCCAAUGCAUCCCCCCACAUGAUGAUGCCUGAACAGCCUUGGUUUUUUG [C31G G48U G65A C86G A100C G120C] | polymerase ribozyme fitness (log ratio) | -6.59 |
| GACCAAUCUGCCCUCAGAGCUCGAGAACAUCUUCGGAUGCAGAGGAGGCAGGCUUCGGUGGCGCGAUAGUGCCAACGUCCUCAACCUCCAAUGCAUCCCACCACCUGAUGAUGCCUGAAGAGCCUUGGUUUUUUG [C70U A105C] | polymerase ribozyme fitness (log ratio) | -3.43 |
| GACCAAUCUGCCCUCAGAGCUCGAGAACAUCUUCGGAUGCAGAGGAGGCAGGCUUCGAUGGAGCGAUAGCGCCAACGUCCUCAACCUCCAAUGCAUCCCACCACAUGAUGAUGCCUGAAGAGCCUUGGUUUUUUG [G58A C62A] | polymerase ribozyme fitness (log ratio) | -2.66 |
| GACCAAUCUGCCCUCAGAGCUCGAGAACAUCUUCGGAUGCAGAGGAGGCAGGCAUCGGUGGCGCGAUAGCGCCAACGUCCUCAACCUCCAAUGCAUCCCACCACAUGAUGAUGCCUGAAGAGCCUUCGUUUUUUG [U54A G127C] | polymerase ribozyme fitness (log ratio) | -0.488 |
| GACCAAUCUGCCCUCAGAGCUCGAGAACAUCUUCGGAUGCAGAGGAGGCAGGCUUCGGUGGCGCGAUAGCGCCAACGUCCUCAAGCUCCAAUGCAUCCCACCACAUGAUGAUGCCUCAAGAGCCUUGUUUUUUUG [C85G G117C G128U] | polymerase ribozyme fitness (log ratio) | -7.06 |
| GACCAAUCUGCCCUCAGAGCUCGAGAACAUCUUCGGAUGCAGAGGAGGCAGGCUUCGGUGGCGCGAUAGCCCCAACGUCCUCAACCUCCAAUGCAUCCCACCACAUGAUGAUGCCUGAAGAGCAUUGGUUUUUUG [G71C C124A] | polymerase ribozyme fitness (log ratio) | -0.102 |
| GACCAAUCUGCCCUAAGAGCUCGAGAACAUCUUCGGAUGCAGAGGAGGCAGGCUUCGGUGACGCGAUAGCGCCAACGUCCUCAACCUCCAAUGCAUCCCACCACAUGAUGAUGCCUGAAGAGCCUUGGUUUUUUG [C15A G61A] | polymerase ribozyme fitness (log ratio) | -2.09 |
| GACCAAUCUGCCUUCAGAGCUCGAGAACAUCUUCGGAUGCAGAGGAGGUAGGCUUCGGUGGCGCGAUAGCGCCAACGUCCUCAACCUCCAAUGCAUCCCACCACAUGAUGAUGCCUGAAGAGCCUUGGUUUUUUG [C13U C49U] | polymerase ribozyme fitness (log ratio) | -0.549 |
| GACCAAUCUGCCCUCUGAGCUCGAGAACAUCUUCGGAUGCAGAGGAGGCAGGCUUCGGUGGCGCGAUAGCGCCAACAUCCUCAACCUCCAAUGCAUCCCACCACAUGAUGAUGCCUUAAGAGCCUUGGUUUUUUG [A16U G77A G117U] | polymerase ribozyme fitness (log ratio) | -3.13 |
| GACCAAUCUGCCCUCAGCGCUCGAGAACAUCUUCGGAUGCAGAGGAGGCAGGCUUCGGUGGCGCGAUAGCGCCAACGUCCUCAACCUCCAAUGCAUCCCACCACAUGAUGAUGCCUGUAGAGCCUUGGUUUUUUG [A18C A118U] | polymerase ribozyme fitness (log ratio) | -0.81 |
| GACAAAUCUGCCCUCAGAGCUCGAGAACAUCUUCGGAUGCAGAGGAGGCAGGCUUCGGUGGCGCGAUAGCGCCAACGUCCUCAACCUCCAAUACAUCCCACCACAUGAUGAUGCCUGAACAGCCUGGGUUUUUUG [C4A G93A G120C U126G] | polymerase ribozyme fitness (log ratio) | -1.92 |
| GACCAAUCUGCCCUCAGAGCUCGAGAACAUCUUCGGAUGCAGAGGAGGCAGGCUUCGGAGGCGCGAUAGCGCCAACGUCCUCAACCUCCAAUGCAUCCCACCACAUGAUGAUGCCUGAAGAGCCUUGCUUUUUUG [U59A G128C] | polymerase ribozyme fitness (log ratio) | -2.5 |
| GACCAAUCUGCCCUCAGAGCUCGAGAACAUCUUCGGAUGCAGAGGAGGCAGGCUUCGGUGGCGCGAUAGCGCCAACGUCCUCAACCCCCAAUGCAUCCCACCUCAUGAUGAUGCCUGAAGAGCCUUGGUUUUUUG [U87C A103U] | polymerase ribozyme fitness (log ratio) | -3.8 |
| GACCAAUCUGCCCUCAGAGCUCGAGAACAUCUUCGGAUGCAGAGGAGGCAGGCUUCGGUGGCGCGAUAGCCCCAACGUCCUCAACCUCCAAUGCAUCCCACCACAUGAUGAUGCCUGAAGAGCCUUGGUUUUUUU [G71C G135U] | polymerase ribozyme fitness (log ratio) | -2.55 |
| GACCAAUCUGCCCUCAGAGCUCGAGAACAUCUUCGGAUGCAGAGGAGGCAGGCUUCGGUGGCGCGAUAGCGUCAACGUCCUCAACCUCCAAUGCAUCUCACCACAUGAUGAUGCCAGAAGAGCCUUGGUUUUUUG [C72U C98U U116A] | polymerase ribozyme fitness (log ratio) | -4.95 |
| GAUCAAUCUGCCCUCAGAGCUCGAGAACAUCUUCGGAUGCAGAGGAGGCAGGCUUCGGUGGCGCGAUAGCGCCAACGUCCUCAACCUCCAAUGCAUCCCACCACAUGAUGAUGCCUGAAGAGCCAUGGUUUUUUG [C3U U125A] | polymerase ribozyme fitness (log ratio) | -1.04 |
| GACCAAUCUGCCCUCAGAGCUCGAGAACAUCUUCGGAUGCAGAGAAGGCAGGCUUCGGUGGCGCGAUAGCGCCAACGUCCUCAACCUCCAAUGCAUCCCACCACAUGAUGAUGCCUGAGGAGCCUUGGUUUUUUG [G45A A119G] | polymerase ribozyme fitness (log ratio) | 0.105 |
| GACCAAUCUGGCCUCAGAGCUCGAGAACAUCUUCGGAUGCAGAGGAGGCAGGCUUCGGUGGCUCGAUAGCGCCAACGUCCUCAACCUCCAAUGCAUCCCACCACAUGAUGAUGCCUGAAGAGCCUUGGUUUUUUG [C11G G63U] | polymerase ribozyme fitness (log ratio) | -0.927 |
| GACCAAUCUGCCCUCAGAGCUCGAGAACAUCUUCGGAUGCAGAGGAGGCAGGCUUCGGUGGCGCGAUAUCGCCAACGUCCCCAACCUCCAAUGCAUCCCACCACAUGAUGAUGCCUGAAGAGCCUUGGUUUUUUG [G69U U81C] | polymerase ribozyme fitness (log ratio) | 0.131 |
| GACCAAUCUGCCCUCAGAGCUCGAGAACAUCUUCGGAUGCAGAGGAGGCAGGCUUCGGUGGCUCGAUAGCGCCAACGUCCUCAACCUCCAAUGCAUCCCACCACAUGAUGAUGCCUGAAGAGUCUUGGUUUUUUG [G63U C123U] | polymerase ribozyme fitness (log ratio) | -0.374 |

Every entry's value here was drawn from the RNAGym collection of RNA variant scans (doi:10.1073/pnas.2313332121).
